ASSAYED_TARGET: Human mGlu2 (Homo sapiens)
Sequence (Q14416 19-872): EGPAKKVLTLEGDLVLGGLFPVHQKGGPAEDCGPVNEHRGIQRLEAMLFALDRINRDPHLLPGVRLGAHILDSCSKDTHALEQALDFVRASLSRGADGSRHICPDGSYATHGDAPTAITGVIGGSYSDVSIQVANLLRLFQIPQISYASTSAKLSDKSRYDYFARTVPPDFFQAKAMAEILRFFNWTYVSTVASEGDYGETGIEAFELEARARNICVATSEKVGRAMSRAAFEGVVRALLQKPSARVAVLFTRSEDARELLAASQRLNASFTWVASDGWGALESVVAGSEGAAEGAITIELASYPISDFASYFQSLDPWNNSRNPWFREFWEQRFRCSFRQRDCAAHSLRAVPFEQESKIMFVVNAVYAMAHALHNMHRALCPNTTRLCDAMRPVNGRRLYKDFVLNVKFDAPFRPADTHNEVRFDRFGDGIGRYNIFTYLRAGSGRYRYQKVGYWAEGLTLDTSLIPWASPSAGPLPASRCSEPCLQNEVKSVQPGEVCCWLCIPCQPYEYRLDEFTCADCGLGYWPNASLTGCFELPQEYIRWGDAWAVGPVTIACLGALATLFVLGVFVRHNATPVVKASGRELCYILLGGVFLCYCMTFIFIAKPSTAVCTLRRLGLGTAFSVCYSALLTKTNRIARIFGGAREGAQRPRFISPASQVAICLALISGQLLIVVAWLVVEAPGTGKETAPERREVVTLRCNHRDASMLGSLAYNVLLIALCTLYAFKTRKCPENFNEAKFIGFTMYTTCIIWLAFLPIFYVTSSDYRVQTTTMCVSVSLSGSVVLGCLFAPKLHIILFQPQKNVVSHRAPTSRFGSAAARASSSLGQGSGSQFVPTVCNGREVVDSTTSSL
PROTOCOL_NOTES: mGlu receptor in vitro assay, human mGlu2
pEC50: −log10 of the molar value.
Classify as follows. Reported pEC50 greater than or equal to 7: Fulfilled. Reported pEC50 below: Not fulfilled.

Check out these entries, answers already filled in.
[[record]]
sample_smiles = "Cc1c(OCc2cnc(-c3cncc(C(=O)O)c3)cn2)ccc(C(=O)CC(C)(C)C)c1O"
assayed_target = "Human mGlu2 (Homo sapiens)"
assigned_class = "Not fulfilled"

[[record]]
sample_smiles = "COc1ccc(C(=O)O)cc1OCCCCCCCCCCOc1ccc(C(=O)CC(C)(C)C)c(O)c1C"
assayed_target = "Human mGlu2 (Homo sapiens)"
assigned_class = "Not fulfilled"

[[record]]
sample_smiles = "CCCC(=O)c1ccc(OCCCCCOc2cccc(C(=O)O)c2C)c(C)c1O"
assayed_target = "Human mGlu2 (Homo sapiens)"
assigned_class = "Fulfilled"

[[record]]
sample_smiles = "Cc1c(OCc2cnc(-c3cccc(O)c3)cn2)ccc(C(=O)CC(C)(C)C)c1O"
assayed_target = "Human mGlu2 (Homo sapiens)"
assigned_class = "Not fulfilled"


From here, focus on the item given below.
Identify whether the reported pEC50 of the following compound is 7 or greater: "COc1ccc(C(=O)c2ccc(OCCCCOc3cc(C(=O)O)ccc3OC)c(C)c2O)cc1"
Not fulfilled
